The origin of these recorded values is patent US20070259889A1.

Target: bovine serum albumin (BSA) (Bos taurus, UniProt P02769)
Sequence (P02769 25-607): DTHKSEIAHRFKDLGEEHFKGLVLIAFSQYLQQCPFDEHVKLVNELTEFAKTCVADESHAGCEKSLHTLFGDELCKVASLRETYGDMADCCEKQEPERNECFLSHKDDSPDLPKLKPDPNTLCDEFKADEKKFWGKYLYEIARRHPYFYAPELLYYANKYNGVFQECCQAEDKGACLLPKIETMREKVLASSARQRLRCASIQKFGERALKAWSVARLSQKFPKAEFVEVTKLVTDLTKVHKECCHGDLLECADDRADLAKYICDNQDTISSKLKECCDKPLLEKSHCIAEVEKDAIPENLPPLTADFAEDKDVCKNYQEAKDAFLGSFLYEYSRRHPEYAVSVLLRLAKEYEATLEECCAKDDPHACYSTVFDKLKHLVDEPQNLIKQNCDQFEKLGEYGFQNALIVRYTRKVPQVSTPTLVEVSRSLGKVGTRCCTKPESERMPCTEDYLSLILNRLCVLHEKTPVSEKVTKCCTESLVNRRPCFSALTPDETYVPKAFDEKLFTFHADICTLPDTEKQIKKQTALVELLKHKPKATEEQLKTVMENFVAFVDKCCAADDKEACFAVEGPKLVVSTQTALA
Experiment: Protein binding studies (albumin binding, centrifugal ultrafiltration, HPLC)
Type: in vitro ADME
Details: didanosine and didanosine prodrugs; method of Example 7: 4% BSA in water, 30 minutes at 37° C., 10,000 MWCO centrifugal filter, phosphate buffer pH 7.4 reference
Procedure: The compound (approximately 5 mg) was dissolved in DMSO (approximately 1.8 ml). A small sample of this DMSO solution (approximately 5 mg) was added to a solution of bovine serum albumin (BSA) in water (approximately 1.8 ml, 4% BSA). Another sample of the DMSO solution (approximately 5 mg) was added to a solution of phosphate buffer pH 7.4 (isotonic) (approximately 1.8 ml). […] The amount of drug in the filtrates was determined by HPLC(C-18 column, phosphate buffer pH 2.2/acetonitrile, UV detection).
REPORTED ENDPOINT: % Albumin binding (%)

COMPOUND: O=C(O)CCCCCCCCCCC(=O)OCC1CCC(n2cnc3c(=O)[nH]cnc32)O1 (stereo not shown)
NUMBER: 94

COMPOUND: O=C(O)CCCCCCC(=O)OCC1CCC(n2cnc3c(=O)[nH]cnc32)O1 (stereo not shown)
NUMBER: 40

COMPOUND: O=C(O)CCCCCCCCCCCCCCC(=O)OCC1CCC(n2cnc3c(=O)[nH]cnc32)O1 (stereo not shown)
NUMBER: 100

COMPOUND: O=C(O)CCCCC(=O)OCC1CCC(n2cnc3c(=O)[nH]cnc32)O1 (stereo not shown)
NUMBER: 10
